assay-procedure: yeast display, Sf9 membrane polyspecificity reagent, FACS + sequencing; frameworks hold sequencing errors

sequence-code | polyreactivity (PSR sort gate)
QVQLVESGGGLVQAGGRLRLSCAASGSIFIGYAMGWYRPAPGKERELVAAISGSGSSTYYADSVKGRFTISRDNAKNTVYLQMNSLKPEDTAVYYCAARTYSRFTASTYYYWGQGTQVTVSS | high polyreactivity
QVQLVESGGGLVQAGGSLRLSCAASGSTFYYYAMGWYRQAPGKEREFVAAISWGGGSTRYADSVKGRFTISRDNAKNTVYLQMNSLKPEDTAVYYCAARYPHYDYYYWGQGTQVTVSS | high polyreactivity
QVQLVDSGGGLVQAGGSLRLSCASSGFIFQYNTMGWSRQAPGKERELVAVITRTGSTNYADSVKGRFTISRDNANNTVYLQMNSLKPEDTAVYYCATSVYSRPRKPRYYYWGQGTQLTVSS | high polyreactivity

----------
assay-procedure: yeast display, Sf9 membrane polyspecificity reagent, FACS + sequencing; frameworks hold sequencing errors

sequence-code | polyreactivity (PSR sort gate)
QVQLVESGGGLVQAGGSLRLSCAASGFIFPRYAMGWYRPAPGTERELVAAISRSGGITRYADSVKGRFTISRDNAKNTVYLQINSLKPEDTAVYYCAAYIQGWVTAEWVRDDYWGQGTQVTVSS | high polyreactivity
QVQLVESGGGLVQAGGSLRLSCAASGSIFDWYAMGWYRQAPGKEGELVAAISSGDSTYYADSVKGRFTISRDNAMNTVYLQMNSLKPEDTAVYYCAAVTKLSGIRYNYWGQGTQVTVSS | low polyreactivity
QVQLVESAGGLVQAGGSLRLSCAASGSTFSYNAMGWYRQAPGKEREFVAAISSRGGNTFYADSVKGRFTISRDNAKNTVYLQMNSLKPEDTAVYYCAARFNRPYDYWGQGTQVTVSS | low polyreactivity
QVQLVESGGGLVQAGGSLRLSCAASGSTFTNYAMGWYRQAPGKEREFVAAITFRGGRTYYADSVKGRFTISRDNAKNTVYLQMNSLKPEDTAVYYCNKRTSPKRFDYWGQGTQVTVSS | high polyreactivity
QVQLVESGGGLVQAGGSLRLICAASGRIFYNYVMGCYRQAPGKERDLVAAISVSSGNTYYADSVKGRFTISRDYAKITVYLQMNSLKPEDTAVYYCARLRTVGGYSKYDYWGQGTQVTVSS | low polyreactivity
QVQLVESGGGLVQAGGSLRLSCAASGRIFHYNAMGWYRQAPGKERELVAVITTIGGDTYYADSVKGRFTISRDNAKNTVYLQMNSLKPEDTAVYYCAARSRSWRQRYGDFDYWGQGTQVTVSS | low polyreactivity

----------
assay-procedure: yeast display, Sf9 membrane polyspecificity reagent, FACS + sequencing; frameworks hold sequencing errors

sequence-code | polyreactivity (PSR sort gate)
QVQLVESGGGLVQAGGSLRLSCAASGSIFWSNAMGWYRQSPGKEREFVASISSSGSTNYADSVKGRFTISRDNAKNTVYLQMNSLKPEDTAVYYCNADGLYSYWYFWSSAYDYWGQGTQVTVSS | low polyreactivity
QVQLVESGGGLVQAGGSLRLSCAASGFIIQGNALGWYRQAPGTERELVAAISSSVSTYYADSVKGRFTISRDNAKNTVYLQMNSLKPEDNAVYDCNAGFPLSLWLGDYWGQGTLVTVSS | low polyreactivity
QVQLLESGGGLVQAGGSLRLSCAASGFTFWYYAMVWYRQAPGKERELVAAITRGGSTNYADSVKGRFTISRDNAKNTVYLQMNSLKPEDTAVYYCAATIYDYNRAGKYYYWGQGTQVTVSS | high polyreactivity
QVQLVESGGGLVQAGGSLRLSCAASGFTFRYYAMGWYRQAPGKERELVAAISYRGGRTYYADSVKGRFTISRDNAKNTVYLQMNSLKPEDTAVYYCAVDYTLADVIYDYWGQGTQVTVSS | high polyreactivity
QVQLVDSGGGLVQAGGSLRLSCAASGFIFDVYAMGGYRQAPGKERELVAAITSGDGTNYADSVKGRFTISRDNAKNTVYFQMNSLKPEDTAVYYCAADDGVTYRGIIFSYWGQGTQVTVSS | low polyreactivity

Origin of values: the nanobody polyreactivity screen of Harvey et al. (2022)
